biological target: P-glycoprotein (ABCB1) (Homo sapiens); experiment: TP_TRANSPORTER: inhibition of Vinblastine transepithelial transport (basal to apical) (Vinblastine: 0.05 uM, Pristinamycin IA: 100 uM) in Caco-2 cells; type: functional, cell-based; conditions: Caco-2, probe Vinblastine 0.05 uM
Sequence (P08183 whole entry): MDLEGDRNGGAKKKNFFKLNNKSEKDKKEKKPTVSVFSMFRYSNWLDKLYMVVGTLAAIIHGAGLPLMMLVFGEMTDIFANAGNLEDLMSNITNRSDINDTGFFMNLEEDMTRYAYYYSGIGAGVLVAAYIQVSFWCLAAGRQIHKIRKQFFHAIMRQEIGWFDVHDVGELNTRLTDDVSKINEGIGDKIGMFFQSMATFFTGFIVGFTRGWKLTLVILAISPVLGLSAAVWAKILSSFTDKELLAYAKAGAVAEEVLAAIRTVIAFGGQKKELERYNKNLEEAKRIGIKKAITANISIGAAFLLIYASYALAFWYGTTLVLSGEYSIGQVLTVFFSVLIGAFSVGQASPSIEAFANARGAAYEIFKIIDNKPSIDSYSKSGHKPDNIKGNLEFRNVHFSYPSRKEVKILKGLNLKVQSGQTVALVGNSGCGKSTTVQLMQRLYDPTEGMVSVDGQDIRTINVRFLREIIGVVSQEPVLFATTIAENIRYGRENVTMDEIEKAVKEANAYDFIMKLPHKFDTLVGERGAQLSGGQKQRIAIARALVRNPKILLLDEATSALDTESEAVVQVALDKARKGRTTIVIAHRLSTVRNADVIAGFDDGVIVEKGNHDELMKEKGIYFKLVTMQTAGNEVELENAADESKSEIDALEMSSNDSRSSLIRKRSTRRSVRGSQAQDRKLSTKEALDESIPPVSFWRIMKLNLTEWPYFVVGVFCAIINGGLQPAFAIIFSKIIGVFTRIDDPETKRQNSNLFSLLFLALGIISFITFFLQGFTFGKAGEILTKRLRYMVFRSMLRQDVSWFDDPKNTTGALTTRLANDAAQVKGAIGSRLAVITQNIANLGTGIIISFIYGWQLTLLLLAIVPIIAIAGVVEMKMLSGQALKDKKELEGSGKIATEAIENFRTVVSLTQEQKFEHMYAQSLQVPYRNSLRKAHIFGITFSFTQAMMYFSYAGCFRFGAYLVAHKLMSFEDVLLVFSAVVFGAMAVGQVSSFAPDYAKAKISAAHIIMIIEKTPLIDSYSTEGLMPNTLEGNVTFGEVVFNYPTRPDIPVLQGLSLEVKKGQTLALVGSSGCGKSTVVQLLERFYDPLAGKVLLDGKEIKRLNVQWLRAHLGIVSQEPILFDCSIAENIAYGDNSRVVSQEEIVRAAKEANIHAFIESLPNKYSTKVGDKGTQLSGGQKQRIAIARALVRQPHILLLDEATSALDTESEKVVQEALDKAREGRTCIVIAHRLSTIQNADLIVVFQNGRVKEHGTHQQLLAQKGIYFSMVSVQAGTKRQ
Bridge positions count the residues as written; N and C are the ends. Square brackets hold non-standard residues; d marks the D form. Peptide text beside a SMILES is read from it. * marks the point of attachment. NMePhe(4-NMe2) = CN[C@@H](Cc1ccc(N(C)C)cc1)C(=O)O; Pip(4-oxo) = O=C1CCN[C@H](C(=O)O)C1; Picolinoyl(3-OH) = O=C(c1ncccc1O)*; Phg = N[C@H](C(=O)O)c1ccccc1; dAbu = CC[C@@H](N)C(=O)O

- molecule: "CC[C@H]1NC(=O)[C@@H](NC(=O)c2ncccc2O)[C@@H](C)OC(=O)[C@H](c2ccccc2)NC(=O)[C@@H]2CC(=O)CCN2C(=O)[C@H](Cc2ccc(N(C)C)cc2)N(C)C(=O)[C@@H]2CCCN2C1=O [PRISTINAMYCIN 1A] ({Picolinoyl(3-OH)}-T[dAbu]P[NMePhe(4-NMe2)][Pip(4-oxo)][Phg]; ester 1-C)"
  units_symbol: "%"
  inhibition at 100 µM: 55
